tested on: HEK293; assay: Cytotoxic Profiling of Annotated Libraries Using Quantitative High-Throughput Screening (AID 1296008); settings: Five cell lines viability, CellTiter-Glo ATP luminescence, 48-72 h; hits give low values; also: % is scaled to controls: 0 for no effect and ±100 for the full control effect; nearly all actives have a fitted effect of over 60% in size
Records with an inconclusive call do not appear.
With a cut-off of -10%, any max response strictly below it is called Y; any max response meeting it or above is called N.

Molecule: O=C(Nc1cc(-c2ccccc2)nn1-c1ccccc1)c1ccc([N+](=O)[O-])cc1
Label: Y
//
Molecule: O=C(O)[C@H](Cc1ccccc1)Oc1ccc(-c2ccccc2)cc1
Label: N
//
Molecule: CC1(CO)CC(O)C2(C)CCC3(C)C(=CCC4C5(C=O)CCC(OC6OC(C(=O)O)C(O)C(O)C6OC6OC(C(=O)O)C(O)C(O)C6O)C(C)(C)C5CCC43C)C2C1 (stereo not given)
Label: Y
//
Molecule: CC(=O)O[C@@H]1[C@H](O[C@@H]2O[C@H](CO)[C@@H](O)[C@H](O)[C@H]2O)[C@@H](O[C@@H]2O[C@@H](C)[C@H](O)[C@@H](O[C@@H]3O[C@H](CO)[C@@H](O)[C@H](O)[C@H]3O)[C@H]2O)[C@H](OC(=O)[C@]23CCC(C)(C)C[C@H]2C2=CCC4[C@@]5(C)C[C@H](O)[C@H](O[C@@H]6O[C@H](C(=O)O)[C@@H](O)[C@H](O)[C@H]6O)[C@@](C)(C(=O)O)C5CC[C@@]4(C)[C@]2(C)CC3)O[C@@H]1C (stereo not given in full)
Label: N
//
Molecule: COc1ccc(C2C(C(=O)O)C(C(=O)O)C2c2ccc(OC)cc2O[C@@H]2O[C@H](CO)[C@@H](O)[C@H](O)[C@H]2O)c(O[C@@H]2O[C@H](CO)[C@@H](O)[C@H](O)[C@H]2O)c1 (stereo not given in full)
Label: Y

###

system: Tov-21-G; assay: Primary qHTS to identify gynecologic anti-cancer compounds using libraries of approved drugs and bioactive compounds (AID 1345084); conditions: Gynecologic cancer cell panel viability, ATPlite luminescence, 48 h; series mostly up to 57.5 µM; also: % is scaled to controls: 0 for no effect and ±100 for the full control effect; nearly all actives have a fitted effect of over 55% in size
Results filed as inconclusive are left out. Calls of active or inactive are those of the source. The call rests on the fitted dose curve; in most records, active means well fitted cell-killing curve with a large enough effect; inconclusive means small, poorly fitted or top-dose-only effect, or effect the other way; inactive means flat fitted curve, though single readings scatter.
Quantity name: activity change, negative = cytotoxicity

Compound: Fc1ccc(-c2c3cccc(C(F)(F)F)c3nn2Cc2ccc(F)cc2Cl)cc1
Quantity name: activity change, negative = cytotoxicity
Result: inactive
--
Compound: CC1(C)CC[C@]2(C(=O)O[C@@H]3O[C@H](CO)[C@@H](O)[C@H](O)[C@H]3O)CC[C@]3(C)C(=CCC4[C@@]5(C)CC[C@H](O[C@@H]6O[C@H](C(=O)O)[C@@H](O[C@@H]7O[C@H](CO)[C@@H](O)[C@H](O)[C@H]7O)[C@H](O)[C@H]6O[C@@H]6O[C@H](CO)[C@@H](O)[C@H](O)[C@H]6O)C(C)(C)C5CC[C@]43C)C2C1 (stereo not given in full)
Quantity name: activity change, negative = cytotoxicity
Result: -2% [at 11.6 µM] (inactive)
--
Compound: C/C=C/C=C/C=C/C(=O)O[C@@H]1[C@@H](OC)C2=C(C(=O)N(C(CCC(=O)O)C(=O)O)C2)[C@@]2(C)CCCC(C)(C)[C@H]12 (stereo not given in full)
Quantity name: activity change, negative = cytotoxicity
Result: inactive
--
Compound: CC(=O)c1c(C)cccc1O[C@@H]1O[C@H](CO)[C@@H](O)[C@H](O)[C@H]1O
Quantity name: activity change, negative = cytotoxicity
Result: inactive
--
Compound: C[C@H]1[C@H](C)CC[C@]2(C(=O)OC3OC(CO)C(O)C(O)C3O)CC[C@]3(C(=O)O)C(=CCC4[C@@]5(C)CC[C@H](O[C@@H]6O[C@@H](C)[C@H](OC7OC(CO)C(O)C(O)C7O)[C@@H](O)[C@H]6O)C(C)(C)C5CC[C@]43C)[C@H]12 (stereo not given in full)
Quantity name: activity change, negative = cytotoxicity
Result: 0.351% [at 11.6 µM] (inactive)

###

system: Tov112D; assay: Primary qHTS to identify gynecologic anti-cancer compounds using libraries of approved drugs and bioactive compounds (AID 1345084); settings: Gynecologic cancer cell panel viability, ATPlite luminescence, 48 h; series mostly up to 57.5 µM; also: % is scaled to controls: 0 for no effect and ±100 for the full control effect; nearly all actives have a fitted effect of over 55% in size
Inconclusive results are not listed. Active and inactive are the calls of the source. Calls come from the whole dose curve; as a rule, active = well fitted cell-killing curve with a large enough effect; inconclusive = small, poorly fitted or top-dose-only effect, or effect the other way; inactive = flat fitted curve, though single readings scatter.
Quantity name: activity change, negative = cytotoxicity

Compound: C[C@@H]1CC[C@]2(C(=O)O)CC[C@]3(C)C(=CCC4[C@@]5(C)C[C@@H](O)[C@H](O)[C@@](C)(CO)C5CC[C@]43C)C2[C@H]1C (stereo partly drawn)
Quantity name: activity change, negative = cytotoxicity
Result: inactive
--
Compound: COC(=O)C(CC1CCCC1)c1ccc(S(C)(=O)=O)cc1 (stereo not drawn)
Quantity name: activity change, negative = cytotoxicity
Result: inactive
--
Compound: CC1CC(=O)C2=C(O1)OC1(C)CCC3C(C)(C)C4OC4C(=O)C3(C)C1C2 (stereo not drawn)
Quantity name: activity change, negative = cytotoxicity
Result: inactive
--
Compound: C=C1CCC2(OC1)OC1CC3C4CC=C5CC(O)CC(O[C@@H]6OC[C@H](OC(=O)C(O)C(C)CC)[C@H](O)[C@H]6O[C@@H]6O[C@@H](C)[C@H](O)[C@@H](O)[C@H]6O)C5(C)C4CCC3(C)C1C2C (stereo partly drawn)
Quantity name: activity change, negative = cytotoxicity
Result: 19.2% [at 11.6 µM] (inactive)
--
Compound: O=S(=O)(O)c1ccc(Nc2ncnc3c2ncn3[C@@H]2O[C@H](CO)[C@@H](O)[C@H]2O)cc1
Quantity name: activity change, negative = cytotoxicity
Result: inactive
--
Compound: C[C@@H]1O[C@@H](O[C@H]2[C@H](OC(=O)[C@]34CCC(C)(C)C[C@H]3C3=CCC5[C@@]6(C)CC[C@H](O[C@@H]7O[C@H](CO[C@@H]8OC[C@H](O)[C@H](O)[C@H]8O[C@@H]8OC[C@@H](O)[C@H](O)[C@H]8O)[C@@H](O)[C@H](O)[C@H]7O)C(C)(C)C6CC[C@@]5(C)[C@]3(C)C[C@H]4O)O[C@H](CO)[C@@H](O)[C@@H]2O)[C@H](O[C@@H]2O[C@H](CO)[C@@H](O)[C@H](O)[C@H]2O)[C@H](O)[C@H]1O[C@@H]1OC[C@@H](O)[C@H](O[C@@H]2OC[C@@H](O)[C@H](O)[C@H]2O)[C@H]1O (stereo partly drawn)
Quantity name: activity change, negative = cytotoxicity
Result: 0.0551% [at 6.55 µM] (inactive)
--
Compound: O=C(O)CC1(O)C(=O)Nc2ccccc21 (stereo not drawn)
Quantity name: activity change, negative = cytotoxicity
Result: inactive
--
Compound: COC(=O)[C@H](Cc1cccc(C(=N)N)c1)[C@@H](C)NC(=O)c1ccc(-c2cc[n+]([O-])cc2)cc1
Quantity name: activity change, negative = cytotoxicity
Result: inactive
--
Compound: CC1(C)C=Cc2c(ccc3c2N=C2C(C)(C)[C@@H]4C[C@]56CCCN5C(=O)[C@@]4(C[C@]23O)NC6=O)O1
Quantity name: activity change, negative = cytotoxicity
Result: inactive
--
Compound: COc1cc2c(c(O)c1OC/C=C(\C)CC/C=C(/C)CCC=C(C)C)CN(C(CCC(=O)O)C(=O)O)C2=O (stereo not drawn)
Quantity name: activity change, negative = cytotoxicity
Result: inactive
--
Compound: C=C1C(=O)O[C@@H]2C[C@]3(C)[C@@H](CCC(C)=O)[C@@H]3C[C@H]12
Quantity name: activity change, negative = cytotoxicity
Result: inactive
--
Compound: O=C(NCC(=O)N1CCCC1)Nc1ccc2ccccc2c1
Quantity name: activity change, negative = cytotoxicity
Result: inactive
--
Compound: C=C[C@H]1[C@H](O[C@@H]2O[C@H](CO)[C@@H](O)[C@H](O)[C@H]2O)OC=C(C(=O)OC)[C@H]1CC=O
Quantity name: activity change, negative = cytotoxicity
Result: inactive

###

test system: Zika virus NS2B-NS3 protease (linked construct); assay: Primary screen NINDS Rhodamine qHTS for Zika virus inhibitors (AID 1347160); conditions: purified NS2B-NS3 protease, Rhodamine110 substrate fluorescence; series mostly up to 33.1 µM; also: nearly all actives have a fitted effect of over 55% in size
Inconclusive results are not listed. Active and inactive are the calls of the source. The call rests on the fitted dose curve; in most records, active means well fitted inhibition curve with a large enough effect; inconclusive means small, poorly fitted or top-dose-only effect; inactive means no such curve, though single readings can be large or run the other way.
Labels: 1 = active, -1 = inactive

Molecule: CC1(C)CC[C@]2(C(=O)O[C@@H]3O[C@H](CO)[C@@H](O)[C@H](O)[C@H]3O)CC[C@]3(C)C(=CCC4[C@@]5(C)CC[C@H](OC6OC(C(=O)O)C(OC7OC(CO)C(O)C(O)C7O)C(O)C6O)C(C)(C)C5CC[C@]43C)C2C1 (some centres undefined)
Label: -1
//
Molecule: O=C(OCC1=CC(Cl)C(O)C(OC(=O)c2ccccc2)C1O)c1ccccc1 (centres undefined)
Label: -1
//
Molecule: CC(=O)O[C@@H](C[C@@H]1C=C(C)C(=O)O1)[C@H](C)[C@H]1CCC2[C@@]3(C)CC[C@H](O[C@@H]4O[C@H](CO)[C@@H](O)[C@H](O)[C@H]4O[C@@H]4O[C@@H](C)[C@H](O)[C@@H](O)[C@H]4O)C(C)(C)C3CC[C@@]2(C)[C@@]12COC(=O)C2 (some centres undefined)
Label: -1
//
Molecule: OC[C@H]1O[C@@H](O[C@H]2[C@H](O)[C@@H](CO)O[C@@H](OCc3ccccc3)[C@@H]2O[C@@H]2OC[C@](O)(CO)[C@H]2O)[C@H](O)[C@@H](O)[C@@H]1O
Label: -1
//
Molecule: CC1(C)CC[C@]2(C(=O)O[C@@H]3O[C@H](CO[C@@H]4O[C@H](CO)[C@@H](O)[C@H](O)[C@H]4O)[C@@H](O)[C@H](O[C@@H]4O[C@H](CO)[C@@H](O)[C@H](O)[C@H]4O)[C@H]3O)[C@H](O)C[C@]3(C)C(=CCC4[C@@]5(C)CC[C@H](O[C@@H]6OC[C@@H](O)[C@H](O)[C@H]6O)[C@@](C)(C(=O)O)C5CC[C@]43C)[C@@H]2C1 (some centres undefined)
Label: -1
//
Molecule: CCOC(=O)C(CCc1ccccc1)NC1CCCN2CCCC(C(=O)O)N2C1=O (centres undefined)
Label: -1
//
Molecule: C[C@@H]1O[C@@H](OC(=O)Cc2ccccc2)[C@H](O)[C@H](O)[C@H]1O
Label: -1
//
Molecule: Cn1cc(CCn2cnc(-c3cnn(C)c3)c2-c2ccc(C#N)cc2)cn1
Label: -1
//
Molecule: Cc1ccccc1-c1cc(N2CCN(C)CC2)ncc1N(C)C(=O)C(C)(C)c1cc(C(F)(F)F)cc(C(F)(F)F)c1
Label: -1
//
Molecule: O=C(O)Cn1nnc(-c2ccc(CN(CCCCOc3ccc(CN4CCCC4)cc3)CCc3ccccc3)cc2)n1
Label: -1
//
Molecule: CC1=C2CC(=O)C(C)CC/C=C(\C)CC2(O)OC1=O (centres undefined)
Label: -1
//
Molecule: CC1CC(O)/C=C/C(O)/C=C\C(=O)O1 (centres undefined)
Label: -1
//
Molecule: Fc1ccc(-c2c3cccc(C(F)(F)F)c3nn2Cc2ccc(F)cc2Cl)cc1
Label: -1
//
Molecule: CC(=O)NC1CC(=O)C23C(=O)NC(Cc4c[nH]c5ccccc45)C2C(C)=C(C)C(O)C3/C=C/CC(C)/C=C(/C)C(O)C1O (centres undefined)
Label: -1
//
Molecule: CN(C)C(=O)C(O)C(Cc1ccccc1)NC(=O)c1cc2cc(Cl)ccc2[nH]1 (centres undefined)
Label: -1
//
Molecule: C=C1[C@@H]2CC[C@@]3(C)[C@H](c4ccoc4)OC(=O)C[C@]13O[C@H]1CC(=O)C(C)(C)[C@H](C(O)C(=O)OC)[C@]12C (some centres undefined)
Label: -1
//
Molecule: Cc1cc(CNC(=O)c2cc(C(=O)NCc3ccc(F)c(C)c3)ncn2)ccc1F
Label: -1
//
Molecule: CCCC(C(=O)O)c1c(C)nc2ccc(Cl)cc2c1-c1ccccc1 (centres undefined)
Label: 1
//
Molecule: CC(C)(O)[C@@H]1CC[C@]2(CO)[C@@H](O)CC[C@](C)(O)[C@H]2[C@@H]1O[C@@H]1O[C@H](CO)[C@@H](O)[C@H](O)[C@H]1O
Label: -1
//
Molecule: COc1c(C)c(OCC=C(C)C)cc2c1CNC2=O
Label: -1
//
Molecule: C=C1C(=O)OC2CC(COC(=O)C(C)C)=C(C(C)CCCOC(C)=O)[C@@H](OC(C)=O)C12 (some centres undefined)
Label: -1
//
Molecule: CC1=CC(=O)CC(C)(C)[C@@]1(O)/C=C/C(C)O[C@@H]1O[C@H](CO)[C@@H](O)[C@H](O)[C@H]1O (some centres undefined)
Label: -1
//
Molecule: O=C(O)c1ccncc1Nc1nn(CCN2CCC(F)(F)CC2)c2ccc(F)cc12
Label: -1
//
Molecule: CC1OC(O[C@@H]2[C@H](O)[C@@H](OC3OC(CO)C(O)C(O)C3O)[C@H](OC(=O)[C@]34CCC(C)(C)C[C@H]3C3=CCC5[C@@]6(C)CC[C@H](O[C@@H]7O[C@H](C(=O)O)[C@@H](O)[C@H](O[C@@H]8OC[C@@H](O)[C@H](O)[C@H]8O)[C@H]7O[C@@H]7O[C@H](CO)[C@H](O)[C@H](O)[C@H]7O)[C@@](C)(C=O)C6CC[C@@]5(C)[C@]3(C)C[C@H]4O)O[C@@H]2C)C(O)C(O)C1OC1OCC(O)C(O)C1O (some centres undefined)
Label: -1
//
Molecule: C[C@]12CC/C(=N\OCC(=O)O)C=C1CC[C@@H]1[C@@H]2[C@@H](O)C[C@@]2(C)[C@H]1CC[C@]2(O)C(=O)CO
Label: -1
//
Molecule: CC(C)c1ccc2c(c1)CCC1[C@](C)(C(=O)O)CCC[C@]21C (some centres undefined)
Label: 1
//
Molecule: Cc1occc1C(=O)n1ccnc1
Label: -1
//
Molecule: CC(C)CC(c1c(O)c(C=O)c(O)c(C=O)c1O)C1CCC(C)(O)C2CC(C(C)(C)O)CCC12C (centres undefined)
Label: 1
//
Molecule: CC(=O)c1ccc(O[C@@H]2OC[C@@H](O)[C@H](O)[C@H]2O[C@]2(CO)O[C@H](CO)[C@@H](O)[C@@H]2O)c(O)c1
Label: -1
